Hey, just so you know, these numbers are from PubChem BioAssay AID1918995.

tested on: 324938-238-R-J1-PDC complex spheroid growth, % test/control; test: Anticancer human tumor 324938-238-R-J1-PDC patient-derived bladder carcinoma cell line growth inhibition [AhR]; conditions: curve of first compound; second compound 1 µM;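 also: spheroids exposed to agents for seven days before viability read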
metric_name: IC50 (nM)

Take a look at these entries with their results.
| compound | metric_name | experimental_value |
| --- | --- | --- |
| CC1COCCN1c1cc(-c2ccnn2C)c2ccnc(-c3ccn[nH]3)c2n1 (configuration not stated) + Cc1ccccc1N=Nc1ccc(NC(=O)c2ccnn2C)c(C)c1 | IC50 | 245 |
| COc1cccc2c1C(=O)c1c(O)c3c(c(O)c1C2=O)CC(O)(C(=O)CO)CC3OC1CC(N)C(O)C(C)O1 (configuration not stated) + Cc1cncc(-c2nc(NCCc3c[nH]c4ccccc34)c3ncn(C(C)C)c3n2)c1 | IC50 | 291 |
| COc1cc(C2c3cc4c(cc3C(OC3OC5COC(C)OC5C(O)C3O)C3COC(=O)C23)OCO4)cc(OC)c1O (configuration not stated) + Cc1ccccc1N=Nc1ccc(NC(=O)c2ccnn2C)c(C)c1 | IC50 | 309 |

P. CC(C)CC(NC(=O)C(Cc1ccccc1)NC(=O)c1cnccn1)B(O)O (configuration not stated) + CC(CO)NC(=O)c1cc(-c2ccc(Cl)cc2)nn(-c2cnn(C)c2)c1=O
Q. NS(=O)(=O)OCC1CC(n2ccc3c(NC4CCc5ccccc54)ncnc32)CC1O (configuration not stated) + Cc1ccccc1N=Nc1ccc(NC(=O)c2ccnn2C)c(C)c1
Compare P and Q and name the one whose reported IC50 is smaller. State your choice using its label.
P
